assay: Oral bioavailability in cynomolgus monkey at 5 mg/kg; format: ADME, organism-based, Macaca fascicularis; settings: in vivo
MEASUREMENT TYPE: bioavailability (%)
The reply should contain only the number, in %.

bioavailability for "COC(=O)N[C@H](C(=O)N1CCC[C@H]1c1ncc(-c2ccc(C34CCC(c5cnc([C@@H]6CCCN6C(=O)[C@@H](NC(=O)OC)C(C)C)[nH]5)(CC3)CC4)cc2)[nH]1)C(C)C" is 61.1

----------
assay: Cmax in Sprague-Dawley rat at 10 mg/kg, po; type: ADME, organism-based; set-up: dose 10 mg/kg, route oral; conditions: in vivo
MEASUREMENT TYPE: Cmax

- QUERY SMILES: "COC(=O)N[C@@H](C(=O)N1CCC[C@H]1c1ncc(-c2ccc(N3CCC(c4cnc([C@@H]5CCCN5C(=O)[C@H](NC(=O)OC)c5ccccc5)[nH]4)CC3)c(F)c2)[nH]1)c1ccccc1"
  Cmax: "41.5 ng/mL"

Here's the next entry for you.
Input "COC(=O)N[C@@H](C(=O)N1CCC[C@H]1c1ncc(-c2ccc([C@H]3CC[C@H](c4cnc([C@@H]5CCCN5C(=O)[C@@H](c5ccccc5)N(C)C)[nH]4)CC3)cc2)[nH]1)c1ccccc1" . Output Cmax: 54.1 ng/mL
